assay: soluble on expression in E. coli; label from the status in PepcDB or PDB records
result-type: soluble on expression in E. coli

polymer-sequence: MKSKFMIHQIFSNYCSKNTRLHTLLYKTFVRPILEYGTEVSSPLKKQDIKAIESVQNSFTRKLYSRQKGKYIRTDDPDYKSAIQRNELFNLSTLEARRKAIDKVFLSKMLVNKVDIDTDQFFKIDKNSKTRTKTKFIWGKCKTKLRRHFFTNRVLSSIKISAMNLILAPHVLCMFNTFTHYSSP
experimental-result: not soluble
//
polymer-sequence: MLKVDKVFPWETFRGKLESPYSKKPKWDVILLLKVLLIKFVYEISWLEGEIRDSKMFMKFLGGKVHQKSILLLQETVVDEGERMWTTLMTQQGLRQGDLEHHHHHH
experimental-result: not soluble
//
polymer-sequence: MIFRSFFTHRIASMETKRLKLIPACLERAEEAHQAVVRSQKTLEVYLPWVPHVLTLEAMIEGTEKAIANFENFEEELRYYIIEK
experimental-result: not soluble

----------
assay: soluble on expression in E. coli; label from the status in PepcDB or PDB records
result-type: soluble on expression in E. coli

polymer-sequence: SNAVRGFLIVGNKAFTQPFSLNDLPGAGRMDVLCRCTSQALFISHGIRRDVEVYLLLLGPPSPPKSILIKGDEVRRMSPDERNVAGHIKKALAVECGKSWKKVHSGVYVSRKGLEELIEELSEKYSIIYLKEDGVDISNAQLPPNPLFVIGDHEGLTEEQEKVVERYAALKLSLSPLSLLAEQCVVIAHHHLDRLQF
result-type: soluble on expression in E. coli
experimental-result: soluble
//
polymer-sequence: ELALWSPEVKIVELVKDCKGLGFSILDYQDPLDPTRSVIVIRSLVADGVAERSGGLLPGDRLVSVNEYCLDNTSLAEAVEILKAVPPGLVHLGIC
result-type: soluble on expression in E. coli
experimental-result: soluble
//
polymer-sequence: MLYKGCLMKSDVQLNLRAKESQRALIDAAAEILHKSRTDFILETACQAAEKVILDRRVFNFNDEQYEEFINLLDAPVADDPVIEKLLARKPQWDV
result-type: soluble on expression in E. coli
experimental-result: not soluble
//
polymer-sequence: AHHHHHHGSDSIIVYVSIHHKNTEKVAKVIAEVLNARLVKPWEIKPEELLKYDLIGFGSGIYYWKHHRALFELINKLPKVEGKKAFIFSTAGLNIPFINHRKLRKVLREKGFEIVGEFSCRGWDTNGWLAEIGGLNKGHPNEKDLENARKFAENLKASI
result-type: soluble on expression in E. coli
experimental-result: soluble
//
polymer-sequence: MFTQRKKWLSGVAAGLLMAASVSASAEEKILHIYNWSDYIAPDTLANFQKETGIKVVYDVFDSNEVLEGKLMAGSTGFDLVVPSASFLERQLSAGVFKPLDKSKLPNEKNLDPELLALVSKHDPDNKYAIPYLWATTGIGYNVEKVKAVLGEDAPVNSWDLVLKPENLEKLKSCGVSFLDAPSEIFATVLNYLGKDPNSTLTADYTGSATDLLLKLRPNIRYFHSSQYINDLANGDICVAVGWAGDIMQASNRAKEAKNGVNVAYSIPKEGALAFFDVFAMPTDAKNQDEAYQFLNYLMRPDVIANISNHVFYANANQAATPLVNAEVRDNPGIYPPADVRAKMFTLKVQDPKIDRVITRAWTKVKSGK
result-type: soluble on expression in E. coli
experimental-result: not soluble
//
polymer-sequence: MSLKIMIVEDDRIQATSLKLKLRQLGLDDVILAENGFAALELCNKVGIDLMFCDIRMPQMDGISLLSQLSLQAPKLGVVILSAVEDTILELTHNMCSLAGFAYVDRLPKPYEVEDLQRVVEGFQKQTEPETSHKPAITLTCDEIEQAFLHDHIFNYYQPQFDFRSGAMVGVEALVRYEHPTHGMLSPAVFLPLIEQCGLHEKLFLTVLEKSVSALASIGADLQLSVNISQRNLQHSICDPILAICERYGFPASKLTLEMTEHEVYNGTPTSLANLARLRMYGVGLSIDDFGTGYASLGQLAQLPFTELKIDRSFVHDLATNYKHQQLTNMCLLLAQSLGLHCVVEGVENEETWQYLRQLGVDTCQGYYAAKPMPIAQLSELYTKNRRQCLGEGHHHHHH
result-type: soluble on expression in E. coli
experimental-result: soluble
//
polymer-sequence: MNRKAFLACVLMCVILTGCETAKKISEVIKNPDIQVGSLKEQPSEITVTLLTEPDTNTNAEGESAAVDVQLVYLTDDSKLQAADYDQIASTPLPDVLGKNYIDHQDFNLLPDTIKTLPPIKLDEKTQFIGVVAYFSDDQATEWKQIETVEGTGHHYRLLVHVRQSSIEMKKEDE
result-type: soluble on expression in E. coli
experimental-result: soluble
//
polymer-sequence: MTTLQEAYLAFKSAQIIDLTHQINENSPHFPLLPALEKKDLFTLKDGFHIQQFTVVGQYGTHIDAPIHFVEGGAWLDELPLEDLLLPMYVIDKSQAVADNPNYELSKADILAFEEKYGQIEEGAFVAFRSDWSKRWPSQEEFRNLDTAGAQQTPGWSHEALEFLIHERQVKAVGHETFDTDSGQAVAENGKLVEEYYLLDQGIYQLEVLNNLNLLPATGSFISIAYPHWEKATGSPVRAIAYIAQELEHHHHHH
result-type: soluble on expression in E. coli
experimental-result: soluble
//
polymer-sequence: MSNQRDYTLIIDKSGSMSIIEPKFQKSRWELVQESTLALARKCDQLDANGITVYTFSGKFRRYDNVNASKVEQIFQENEPVGGTNLTAVLQDALNNFLQRKKSNQAPTGETILVITDGEPNDRRSVFEIIIQASKCLDADEELAISFMQIGNDPSATKFLQALDDQLMEVGAKFDIVDTVTFDEMEDLTLTEVLLNAIEDLEHHHHHH
result-type: soluble on expression in E. coli
experimental-result: soluble
//
polymer-sequence: MDLSSLEIFRAVAHEASVTRAAQRLQRAQSNVTTRIRQLEEDLGVELFLRDGKRMSLTERGSEFLAYAEQLLALADEARQSMHPAEPGGRLRLGSMESTAASRLPALLASYHKACPRVALEVSTGTSHALFDGVRARRLDCALVAAGPGWAGELDGSGLRGEPLFREELLMILPAEHPPVHDVAEVRLRTLAGFARGCTYRQLAEDSLGTPLTVQEVGSYHAILACVAAGACVGVLPRSVLQLLGTPPLRSLPLAEVDTWLVWREGYATAAFERWRGVLGQAGD
result-type: soluble on expression in E. coli
experimental-result: not soluble
//
polymer-sequence: SLRTEQEMMDVILTIAKKEERIRAVYMNGSRTNSNVPKDLFQDYDIVYVVTDIAPFIQEQQWLKKFGEPLMIQEPDQLDAGIGVNRDFSRRYAFLMLFTDGNRIDLTLQTKETMREVYENDTLTVPLLDKDHCLPPIPPPSDSDYHVKEPTEGEFISCTNNFWWCLQNVAKGIWRDELPYAKQMFELTTRASLDEMVNWWIGLENDFQLSTGKLGKYFKKHLPPPYWAMYEATYANSDYEQMWESIFIACDLFRTLAKDVAAACSFTYPETDDRNMTDYLHRVKNLSADATDM
result-type: soluble on expression in E. coli
experimental-result: soluble
//
polymer-sequence: MGHHHHHHSHMEWKVKVRSDGTRYVAKRPVRDRLLKARALKIREERSGMTTDDDAVSEMKMGRYWSKEERKQHLIRAREQRKRREFMMQSRLECLREQQNGDSKPELNIIALSHRKTMKKRNKKILDNWITIQEMLAHGARSADGKRVYNPLLSVTTV
result-type: soluble on expression in E. coli
experimental-result: not soluble
//
polymer-sequence: MSTPRIEHYTTDVHAHWEGIHPQDWAEVDLIGYENAMDKMYRTLCENPDAALVQVGHRSKLLNDHGSDYRFNGKFTSEQTKPERSHHDYNHFGKLMKWEGDRWYKYDFEVEVTDHTRSE
result-type: soluble on expression in E. coli
experimental-result: not soluble

----------
assay: soluble on expression in E. coli; label from the status in PepcDB or PDB records

polymer-sequence: MIKVDHRPLYLQVIDKLKHDMEAGVYEEGEKLPSEFELSKQLGVSRATLREALRLLEEEGVVVRRHGVGTFVHTKPLFSAGIEELYSVTDMIRHADMEPGTIFLSSYQIEATDDDKRRFQTDNLDQLMMIERVRTADGVPIVYCLDKLPAELIGQHSVHEINSILDHLESGSDRMITHAVTTIEPIGFHEKVSEILECEAETGLLLLKQMHYDQYDTPVLYSYNYFRADKFTFHVVRKRVKA
soluble on expression in E. coli: not soluble
//
polymer-sequence: MMRNSHTIENFERMPDGETSSLPDITNYQESVDENPVEECSAYSDTIATCSMCLQVAPHSQFFACTYPGCGYALKQKESVKSPTLFYRKERVLCGACAFLGDHAHHKAYLLKADKLAFLTASREIGGKLEMDMEEVCRLDKSHPVDNAMIIKSGGHVELEKISVVSFLSQAKTIEEWHSRHCMVNEMLSTIKYNREQGIDYLRKQSEKVMTLLNNAAQEIKSVSRTLPKQLTNQDKPHTSFGRRQHASQKNTEWANEEYSPFSSTCSESSTSTLHMAKALQSVDDEVTGGFGGFGFGFGASAVNKSLKGQIKSENYTSIAVTRLYKMLIRTEPKETALRRAADYLNELTHSKTEKKAVIEYMEKKHSIKWPEHII
soluble on expression in E. coli: not soluble
//
polymer-sequence: MIGTAVKELLLEKQETFLVPAENVANVMCLNPLSHAALVLSQVRYSKIPVLDKGDRFVGLIGLTDVVDKMFDLTSVDFEKLNEFTVADVMEVNVPVIGESWDLEEVLHLLVDASFLPVVDDNQRFKGIITRKEILKAVNHMAHELEKHHLVLPKSEEEMKVI
soluble on expression in E. coli: not soluble

From: the DeepSol protein solubility set
